Hey, just so you know, these numbers are from ChEMBL document CHEMBL1138080.

MEASUREMENT TARGET: Polyunsaturated fatty acid 5-lipoxygenase (Homo sapiens)
Sequence (whole entry): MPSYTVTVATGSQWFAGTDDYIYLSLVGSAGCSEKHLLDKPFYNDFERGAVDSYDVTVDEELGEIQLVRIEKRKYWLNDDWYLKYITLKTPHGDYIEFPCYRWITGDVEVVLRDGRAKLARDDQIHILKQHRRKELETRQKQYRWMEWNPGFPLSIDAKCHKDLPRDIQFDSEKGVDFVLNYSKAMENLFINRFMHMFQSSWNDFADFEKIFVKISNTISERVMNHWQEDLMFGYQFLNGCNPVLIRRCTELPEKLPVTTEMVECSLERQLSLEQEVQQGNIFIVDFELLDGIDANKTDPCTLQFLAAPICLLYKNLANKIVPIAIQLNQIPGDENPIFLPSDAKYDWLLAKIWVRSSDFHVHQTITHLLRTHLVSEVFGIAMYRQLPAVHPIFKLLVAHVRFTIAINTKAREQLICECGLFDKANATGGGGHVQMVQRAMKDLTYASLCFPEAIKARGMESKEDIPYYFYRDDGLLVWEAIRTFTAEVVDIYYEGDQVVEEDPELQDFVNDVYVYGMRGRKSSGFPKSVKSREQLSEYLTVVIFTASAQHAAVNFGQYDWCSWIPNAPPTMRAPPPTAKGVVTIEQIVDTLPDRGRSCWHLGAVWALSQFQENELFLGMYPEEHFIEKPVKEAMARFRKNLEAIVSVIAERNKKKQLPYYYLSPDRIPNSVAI
ASSAY TEXT: Inhibition of 5-LOX at 10 uM
READOUT LABEL: inhibition (%)

Here are 5 molecules together with their reported answers.
For Polyunsaturated fatty acid 5-lipoxygenase (Homo sapiens), provide inhibition of `CCOC(=O)c1c(Nc2ccccc2)[nH]c2ccc(O)cc12` please. 80

Quick one: `CC(=O)N(O)C/C=C/c1cccc(Oc2ccccc2)c1` 86

Quick one: CCOC(=O)c1c(NC(C)c2ccccc2)[nH]c2ccccc12 (centres undefined) 51

Quick one: `CCOC(=O)c1c(Nc2ccc(C)cc2)[nH]c2ccc(O)cc12` 77

Quick one: `C=CCN(CC=C)c1[nH]c2ccc(O)cc2c1C(=O)OCC` 65

(1) CCOC(=O)c1c(Nc2cccnc2)[nH]c2ccc(O)cc12
(2) CCOC(=O)c1c(N2CCN(Cc3ccccc3)CC2)[nH]c2ccc(O)cc12
(3) COC(=O)c1c(NC(C)c2ccccc2)[nH]c2ccc(O)cc12 (racemic)
(4) COC(=O)c1c(NC(C)c2ccccc2)[nH]c2ccccc12 (centres undefined)
Order the records, beginning with the lowest inhibition and ending with the highest. Output the labels ranked as instructed. 1, 4, 2, 3
(1: 24%, 4: 42%, 2: 61%, 3: 94%)
